conditions: in ethyl acetate, 308.15 K
metric: solubility (mole fraction)
# print the numeric value only

Query: solubility (mole fraction); subject: `O=[N+]([O-])c1cc(F)c(F)cc1[N+](=O)[O-]` 0.0028

###

settings: in m-xylene, 298.15 K
metric: solubility (mole fraction)
# print the numeric value only

Query: solubility (mole fraction); subject: `O=[N+]([O-])c1cc(F)c(F)cc1[N+](=O)[O-]` 0.00206

###

conditions: in toluene, 313.15 K
metric: solubility (mole fraction)
# print the numeric value only

Query: solubility (mole fraction); subject: `O=[N+]([O-])c1cc(F)c(F)cc1[N+](=O)[O-]` 0.00349

###

details: in m-xylene, 308.15 K
metric: solubility (mole fraction)
# print the numeric value only

Query: solubility (mole fraction); subject: `O=[N+]([O-])c1cc(F)c(F)cc1[N+](=O)[O-]` 0.00303

###

details: in p-xylene, 293.15 K
metric: solubility (mole fraction)
# print the numeric value only

Query: solubility (mole fraction); subject: `O=[N+]([O-])c1cc(F)c(F)cc1[N+](=O)[O-]` 0.00172

###

settings: in mesitylene, 308.15 K
metric: solubility (mole fraction)
# print the numeric value only

Query: solubility (mole fraction); subject: `O=[N+]([O-])c1cc(F)c(F)cc1[N+](=O)[O-]` 0.00309

###

conditions: in benzene, 323.15 K
metric: solubility (mole fraction)
# print the numeric value only

Query: solubility (mole fraction); subject: `O=[N+]([O-])c1cc(F)c(F)cc1[N+](=O)[O-]` 0.00499

###

conditions: in toluene, 293.15 K
metric: solubility (mole fraction)
# print the numeric value only

Query: solubility (mole fraction); subject: `O=[N+]([O-])c1cc(F)c(F)cc1[N+](=O)[O-]` 0.00135

###

conditions: in mesitylene, 298.15 K
metric: solubility (mole fraction)
# print the numeric value only

Query: solubility (mole fraction); subject: `O=[N+]([O-])c1cc(F)c(F)cc1[N+](=O)[O-]` 0.00259

###

details: in n-propanol, 293.15 K
metric: solubility (mole fraction)
# print the numeric value only

Query: solubility (mole fraction); subject: `O=[N+]([O-])c1cc(F)c(F)cc1[N+](=O)[O-]` 4.5e-05

###

details: in 1,2-dichloroethane, 303.15 K
metric: solubility (mole fraction)
# print the numeric value only

Query: solubility (mole fraction); subject: `O=[N+]([O-])c1cc(F)c(F)cc1[N+](=O)[O-]` 0.00128

###

conditions: in toluene, 323.15 K
metric: solubility (mole fraction)
# print the numeric value only

Query: solubility (mole fraction); subject: `O=[N+]([O-])c1cc(F)c(F)cc1[N+](=O)[O-]` 0.00551

###

details: in mesitylene, 293.15 K
metric: solubility (mole fraction)
# print the numeric value only

Query: solubility (mole fraction); subject: `O=[N+]([O-])c1cc(F)c(F)cc1[N+](=O)[O-]` 0.00238

###

conditions: in o-xylene, 313.15 K
metric: solubility (mole fraction)
# print the numeric value only

Query: solubility (mole fraction); subject: `O=[N+]([O-])c1cc(F)c(F)cc1[N+](=O)[O-]` 0.00377

###

conditions: in benzene, 298.15 K
metric: solubility (mole fraction)
# print the numeric value only

Query: solubility (mole fraction); subject: `O=[N+]([O-])c1cc(F)c(F)cc1[N+](=O)[O-]` 0.00152
